// data source = PubChem BioAssay (NCI)

Test: NCI Yeast Anticancer Drug Screen. Data for the mlh1 strain (AID 171);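 further: 0% = growth of vehicle-treated control cultures of the same strain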
Conditions: S. cerevisiae mlh1 strain growth inhibition; at 3.7 µM; active compounds read high
The panel holds about 79,000 compounds, 15% with a hit somewhere; the sample as a whole holds those more often.
Please respond with reported growth inhibition for every item in the list.
Numbers only, in %.

[
  {
    "molecule": "CCCCCCCCCCCCCCCCCN",
    "observedResult": 0
  },
  {
    "molecule": "CC(=O)c1ccc(NCN2C(=O)c3ccccc3C2=O)cc1",
    "observedResult": -48
  },
  {
    "molecule": "CCOC(=O)/C=C1\\CCCn2c1ncc(C(=O)OCC)c2=O",
    "observedResult": 3
  },
  {
    "molecule": "CCOc1nc(OCC)nc(-c2cccn2-c2ccccc2)n1",
    "observedResult": -6
  },
  {
    "molecule": "CSc1ccc2c(c1)C(N1CCN(C)CC1)Cc1ccccc1S2 (stereo not drawn)",
    "observedResult": -68
  }
]

Give growth inhibition for all molecules that follow.
1. c1cc(Nc2ccc3c(c2)OCO3)c2cc(C3CCCCC3)ccc2n1
2. COc1ccc(C(=O)NCCN(C)C)c2nc3ccccc3cc12
3. CCCCCCCCCCCCOC1C(COCCN2CCCC2)OC2OC(C)(C)OC21 (stereo not drawn)

### Response
1. -1
2. 23
3. 27

Give growth inhibition for all molecules that follow.
1. CC(C)(C)[Si](C)(C)OCC1OC(n2cnc3c(N)ncnc32)C2OC(=S)OC12 (stereo not drawn)
2. CNc1ccc2[nH]c3ccccc3c2c1
3. c1ccc(N/N=C2\CC(c3ccccc3)Oc3ccccc32)cc1 (stereo not drawn)
4. O=Cn1c2ccccc2c2ccccc21
5. O=C1c2ccccc2C2CCC1c1ccccc12 (stereo not drawn)
6. [N-]=[N+]=NC1CC(n2ccc(=O)[nH]c2=O)OC1COC(c1ccccc1)(c1ccccc1)c1ccccc1 (stereo not drawn)

### Response
[-2, 1, 0, -17, 6, 2]

###

Experiment: NCI Yeast Anticancer Drug Screen. Data for the bub3 strain (AID 167)
Conditions: S. cerevisiae bub3 mutant strain, at 100.0 µM
Compounds without any hit were thinned out: in the full panel of roughly 79,000, 15% have a hit. Calls of active or inactive are those of the source. Cut-off read from the data, not from the text of the source: active = growth inhibition above about 70%; inactive = the rest.
Reply using exactly one outcome from active, inactive

[
  {
    "compound": "[O-]c1c2cc(-[n+]3c(-c4ccccc4)cc(-c4ccccc4)cc3-c3ccccc3)cc1COCCOCCOCCOCCOC2",
    "groupLabel": "inactive"
  },
  {
    "compound": "c1ccc2cc(OCC3CO3)c(OCC3CO3)cc2c1 (centres undefined)",
    "groupLabel": "inactive"
  }
]

### Prompt Tell me the recorded outcome of this test for Cc1cc(NCCCN(C)C)c2ccc3c(ccc4c(NCCCN(C)C)cc(C)nc43)c2n1 .
### Response inactive

### Prompt Tell me the recorded outcome of this test for CSc1ccc2c(c1)C(N1CCN(C)CC1)Cc1ccccc1S2 (centres undefined) .
### Response active

### Prompt Tell me the recorded outcome of this test for Cc1nc2ccc(Br)cc2c(=O)n1-c1ccc(NC2OCC(O)C(O)C2O)cc1 (centres undefined) .
### Response active

### Prompt Tell me the recorded outcome of this test for O=S(=O)(Oc1c(Cl)cc(Cl)cc1Cl)c1ccccc1 .
### Response inactive

### Prompt Tell me the recorded outcome of this test for O=[N+]([O-])C(=C(NCc1ccccc1)NCc1ccccc1)C(Cl)=C(Cl)Cl .
### Response inactive

### Prompt Tell me the recorded outcome of this test for CCOC(=O)C1=C(C)NC(C)=C(C(=O)OCC)C1c1ccc(Cl)cc1 .
### Response active
